Data credit: paper PMC6478789

Biological target: UniProtKB Q09472
Sequence (Q09472 1049-1156 limits assumed): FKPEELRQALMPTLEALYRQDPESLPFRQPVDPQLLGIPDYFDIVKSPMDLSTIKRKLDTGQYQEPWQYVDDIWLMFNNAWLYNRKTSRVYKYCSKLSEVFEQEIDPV
Test: BROMOscan ligand-binding assay
Conditions: KD, BROMOscan Gene Symbol EP300
Quick reference for pKd among some molecules
Recall that pKd is obtained by taking minus log10 of the concentration measured in molar.

| query_smiles | pKd |
| --- | --- |
| CCCOc1ccn2c(C(C)=O)cc(-c3ccccc3S(C)(=O)=O)c2c1 | 4.15 |

Continue with the next molecule.
Request: Name the recorded pKd of the molecule listed here: "CCOC(=O)Nc1cc(-c2ccc(C)c(NS(C)(=O)=O)c2)nn2c(C)nnc12"
Result: 5.80
